experiment: Selectivity index, ratio of IC50 for human WI38 cells to IC50 for trypomastigote stage of Trypanosoma brucei brucei; assay type: toxicity; conditions: read-out: Ratio IC50
metric-name: selectivity ratio
One number for each entry.

Please look up its selectivity ratio: CC1=C/C(=N/NC(=S)Nc2ccccc2)C(C(C)C)CC1 (stereo unspecified)
12.3

###

experiment: Selectivity index, ratio of IC50 for HEK293T cells to IC50 for Trypanosoma brucei rhodesiense STIB 851; format: toxicity; conditions: human
metric-name: selectivity ratio

Please look up its selectivity ratio: `O=c1c2ccccc2sn1-c1ccccc1`
60.8

###

tested on: Trypanosoma brucei rhodesiense; assay: Anti-parasitic activity against Trypanosoma brucei rhodesiense STIB 851; format: functional, organism-based
metric-name: pIC50
Numbers only, as −log10 of the molar value.

Please look up its pIC50: `O=c1c2ccccc2sn1-c1ccccc1`
6.58
